Biological target: Carboxypeptidase N catalytic chain (Homo sapiens)
Sequence (P15169 whole entry): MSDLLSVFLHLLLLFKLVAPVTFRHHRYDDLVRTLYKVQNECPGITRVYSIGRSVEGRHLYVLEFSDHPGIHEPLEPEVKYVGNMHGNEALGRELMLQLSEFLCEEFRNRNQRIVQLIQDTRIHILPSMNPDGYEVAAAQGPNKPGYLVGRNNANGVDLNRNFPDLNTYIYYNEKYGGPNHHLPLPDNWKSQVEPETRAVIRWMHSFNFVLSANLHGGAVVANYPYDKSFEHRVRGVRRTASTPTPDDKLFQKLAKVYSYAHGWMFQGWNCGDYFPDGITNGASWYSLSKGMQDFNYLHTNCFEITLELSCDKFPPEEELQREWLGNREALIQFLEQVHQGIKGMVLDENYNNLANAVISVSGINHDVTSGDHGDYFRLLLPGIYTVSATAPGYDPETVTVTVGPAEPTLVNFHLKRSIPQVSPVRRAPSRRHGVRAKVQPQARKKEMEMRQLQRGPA
Assay: Inhibition of human plasma carboxypeptidase N
property-measured: pKi
Recall that pKi is obtained by taking minus log10 of the concentration measured in molar.

Please report the recorded pKi for NC(N)=NCCCC(CS)C(=O)O (racemic) . 8.70

* * *

Experiment: Tmax in human
Assay type: ADME, organism-based
Details: in vivo
property-measured: Tmax (h)
Write the value in h as a bare number.

Please report the recorded Tmax for CCCn1cnc(C[C@H](CCCN)C(=O)O)c1 [UK-396,082] . 4

* * *

Assay: Hydrophilicity, log D of the compound
Type: physicochemical
Settings: octanol/water
property-measured: logD
Number only, no unit.

Please report the recorded logD for CCCn1cnc(C[C@H](CCCN)C(=O)O)c1 [UK-396,082] . -2.8

* * *

Experiment: Volume of distribution in dog at 0.6 mg/kg, iv
Assay type: ADME, organism-based, Canis lupus familiaris
Parameters: dose 0.6 mg/kg, route intravenous
Details: in vivo, read-out: Vdss
property-measured: Vd (L/kg)
Write the value in L/kg as a bare number.

Please report the recorded Vd for CCCn1cnc(C[C@H](CCCN)C(=O)O)c1 [UK-396,082] . 0.35

* * *

Assay: Bioavailability in rat
Assay type: ADME, organism-based
Conditions: in vivo
property-measured: bioavailability (%)
Write the value in % as a bare number.

Please report the recorded bioavailability for `CCCn1cnc(C[C@H](CCCN)C(=O)O)c1` . 20

* * *

Target: Carboxypeptidase B2 (Homo sapiens, UniProt Q96IY4)
Sequence (Q96IY4 whole entry): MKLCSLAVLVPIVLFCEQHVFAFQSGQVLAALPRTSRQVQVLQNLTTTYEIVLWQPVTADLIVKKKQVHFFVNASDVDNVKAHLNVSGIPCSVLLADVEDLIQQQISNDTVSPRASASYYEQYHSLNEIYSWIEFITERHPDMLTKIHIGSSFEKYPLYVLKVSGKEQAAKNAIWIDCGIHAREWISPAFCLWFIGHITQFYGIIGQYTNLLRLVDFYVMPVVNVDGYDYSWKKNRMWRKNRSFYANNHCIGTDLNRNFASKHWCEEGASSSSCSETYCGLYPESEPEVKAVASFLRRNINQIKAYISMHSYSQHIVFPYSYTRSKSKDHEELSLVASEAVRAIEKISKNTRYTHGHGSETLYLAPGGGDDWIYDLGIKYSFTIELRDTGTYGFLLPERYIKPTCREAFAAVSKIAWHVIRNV
pKi: −log10 of the molar value.
property-measured: pKi

Some entries whose results are on file:
CC(C)Cn1cnc(C[C@H](NCCN)C(=O)O)c1 | 7.00
CCCn1cnc(CC(CCCN)C(=O)O)c1 (racemic) | 7.34

a = CC(C)n1cnc(C[C@H](NCCN)C(=O)O)c1
b = NCCCC(Cc1c[nH]cn1)C(=O)O (racemic)
Smaller pKi value? Options are a and b # respond with the chosen item's label a

P = Cn1cnc(C[C@H](NCCN)C(=O)O)c1
Q = NC(N)=NCCCC(CS)C(=O)O (racemic)
API: POST /compare with P and Q ; response names the item with higher pKi. # respond with the chosen item's label Q
(Q: 8.40, P: 6.63)

* * *

Assay: Renal elimination in dog at 0.6 mg/kg, iv by urinary excretion studies
Type: ADME, organism-based, Canis lupus familiaris
Design: dose 0.6 mg/kg, route intravenous
Conditions: urine, read-out: Activity
property-measured: dose excreted (%)
Write the value in % as a bare number.

Please report the recorded dose excreted for `CCCn1cnc(C[C@H](CCCN)C(=O)O)c1` . 96
